Data provenance is ChEMBL document CHEMBL1157533.

Measured half-life accompanies every entry in the list below.
Assay: Terminal half life in monkey plasma at 0.32 mg/kg, iv by cassette assay
Type: ADME, organism-based, Macaca mulatta
Design: dose 0.32 mg/kg, route intravenous
Settings: rhesus monkey, read-out: beta t1/2 (converted)
Number only, in h; omit the unit.

# smiles-structure, half-life, h
measured = [
    ("CC(C)Cc1cc(-c2ccc(CCNC[C@H](O)c3ccc(N)nc3)cc2)ccc1C(=O)O", 5.9),
]

Problem: Check the records and state half-life for CC(C)Oc1cc(-c2ccc(CCN[C@@H](C)[C@H](O)c3ccccc3)cc2)ccc1C(=O)O
Solution: 29

====

Assay: Terminal half life in dog at 0.1 mg/kg, iv
Format: ADME, organism-based, Canis lupus familiaris
Design: dose 0.1 mg/kg, route intravenous
Details: in vivo, read-out: beta t1/2 (converted)
property-name: half-life (min)
Number only, in min; omit the unit.

# smiles-structure, property-name, numeric-readout
rows = [
    ("C[C@H](Cc1ccc(-c2ccc(C(=O)O)cc2)cc1)NC[C@H](O)c1cccnc1", "half-life", 384),
    ("CC(C)Oc1cc(-c2ccc(C[C@@H](C)NC[C@H](O)c3ccccc3)cc2)ccc1C(=O)O", "half-life", 858),
]

Next up:
Problem: Check the records and state half-life for CC(C)Oc1cc(-c2ccc(CCN[C@@H](C)[C@H](O)c3ccccc3)cc2)ccc1C(=O)O
Solution: 858

====

Measured Cmax accompanies every entry in the list below.
Test: Cmax in dog at 0.1 mg/kg, po by cassette assay
Assay type: ADME, organism-based, Canis lupus familiaris
Parameters: dose 0.1 mg/kg, route oral
Conditions: in vivo
Number only, in ng/mL; omit the unit.

# smiles-structure, unit-annotation, Cmax
data = [
    ("CC(C)Cc1cc(-c2ccc(OCCNC[C@H](O)c3ccc(N)nc3)cc2)ccc1C(=O)O", "ng/mL", 11.6),
]

Next up:
Problem: Check the records and state Cmax for CCCOc1cc(-c2ccc(OCCNC[C@H](O)c3cccc(Cl)c3)cc2)ccc1C(=O)O
Solution: 40.6

====

Experiment: AUC (0 to 24 hrs) in monkey at 0.28 mg/kg, po by cassette assay
Assay type: ADME, organism-based, Macaca mulatta
Parameters: time < 24 hr, dose 0.28 mg/kg, route oral
Conditions: rhesus monkey, plasma
property-name: AUC(0-t) at 24 h (ng·h/mL)
Number only, in ng·h/mL; omit the unit.

Problem: Check the records and state AUC(0-t) at 24 h for O=C(O)c1ccc(-c2ccc(CCNC[C@H](O)c3cccnc3)cc2)cc1OC1CCCCC1
Solution: 153

====

Experiment: Bioavailability in dog at 0.1 mg/kg, po
Format: ADME, organism-based, Canis lupus familiaris
Conditions: in vivo
property-name: bioavailability (%)
Number only, in %; omit the unit.

Observe how each entry below is paired with its result.
# smiles-structure, unit-annotation, bioavailability
measured = [
    ("CCCOc1cc(-c2ccc(C[C@@H](C)NC[C@H](O)c3cccnc3)cc2)ccc1C(=O)O", "%", 54.9),
    ("CC(C)Oc1cc(-c2ccc(CCN[C@@H](C)[C@H](O)c3ccccc3)cc2)ccc1C(=O)O", "%", 63.9),
    ("CC(C)Oc1cc(-c2ccc(C[C@@H](C)NC[C@H](O)c3ccccc3)cc2)ccc1C(=O)O", "%", 79.6),
]

Problem: Check the records and state bioavailability for C[C@H](Cc1ccc(-c2ccc(C(=O)O)cc2)cc1)NC[C@H](O)c1cccnc1
Solution: 59.7
